Collected cell viability values appear next to each entry.
Test system: NOMO1
Assay: cell viability relative to DMSO control; higher = less cytotoxic
Conditions: RPMI 5 mM glucose + 10% dialyzed FBS; 48 h; 0.000781 µM
# number only, unit % dropped from output

Consider the reported cell viability for these molecules:
Cc1nc(N)ncc1-c1nc(N2CCOCC2)c2sc(C(C)(C)O)cc2n1; 114
CCCCCN(CCC12CC3CC(CC(C3)C1)C2)C(=O)NCCCc1ccncc1; 104
Cn1cnc([N+](=O)[O-])c1Sc1ncnc2nc[nH]c12; 88.9
Cc1ccc(-c2cc(C(F)(F)F)nn2-c2ccc([S+](N)(=O)[O-])cc2)cc1; 121
CN(C)[C@@H](CCOc1cccc2ccccc12)c1ccccc1; 113

Which value of cell viability has been reported for O=C1N\C=N/C2=C1C=N[NH]2 in the records?
71.6

Please answer likewise for Oc1ccc(-c2ccc(-c3cc(Nc4cccc(CNC5CC5)c4)[nH]n3)cc2)c(O)c1
99.3

Please answer likewise for O=[S+]([O-])(NCCNC/C=C/c1ccc(Br)cc1)c1cccc2cnccc12
103

Please answer likewise for C[C@@H](N)C1CC[C@@H](CC1)C(=O)NC2=CC=NC=C2 (some centres undefined)
113

###

Test system: SEM cells
Experiment: cell viability relative to DMSO control; higher = less cytotoxic
Settings: RPMI 5 mM glucose + 10% FBS; 48 h; 15.4 µM
metric: cell viability (%)
# number only, unit % dropped from output

Consider the reported cell viability for these compounds:
Nc1nc(N)c(N=O)c(OCC2CCCCC2)n1; 38.1
CC(C)(O)C(=O)Nc1ccc([N+](=O)[O-])c(C(F)(F)F)c1; 123
Cc1cnc(Nc2ccc(CN3CCOCC3)cc2)nc1Nc1cccc([S+](=O)([O-])NC(C)(C)C)c1; 2.53
C[C@H](NCc1ccc(OCc2cccc(F)c2)cc1)C(N)=O; 22.1
CN(C)[C@@H](CCOc1cccc2ccccc12)c1ccccc1; 114
CCCCc1nc2cc(/C=C/C(=O)NO)ccc2n1CCN(CC)CC; 4.06

Which value of cell viability has been reported for N#Cc1ccc(NC(=O)Nc2ccccc2Br)c2nn[nH]c12 in the records?
104

Please answer likewise for CC1=C(/C=C/C(C)=C/C=C/C(C)=C/C(=O)O)C(C)(C)CCC1
113

Please answer likewise for CC(C)(Sc1ccc(CCN(CCCCC2CCCCC2)C(=O)NC2CCCCC2)cc1)C(=O)O
89.6

Please answer likewise for O=C(O)Cc1cccc(OCCCN(Cc2cccc(C(F)(F)F)c2Cl)CC(c2ccccc2)c2ccccc2)c1
84.8

Please answer likewise for N=C(N)Nc1ccc(C(=O)Oc2ccc3cc(C(=N)N)ccc3c2)cc1
93.4

Please answer likewise for CCCCCN(CCC12CC3CC(CC(C3)C1)C2)C(=O)NCCCc1ccncc1
108

Please answer likewise for C[C@]\12CCC(=O)\C=C1[C@@H]3C[C@@H]3[C@@H]4[C@@H]2CC[C@@]5(C)[C@H]4[C@@H]6C[C@@H]6[C@@]57CCC(=O)O7
125

Please answer likewise for CC(C)(C)OC(=O)Nc1ccc(-c2cc(C(=O)NCCCCCCC(=O)NO)no2)cc1
4.09

###

Test system: NOMO1
Experiment: cell viability relative to DMSO control; higher = less cytotoxic
Conditions: RPMI 5 mM glucose + 10% FBS; 48 h; 5.12 µM
metric: cell viability (%)
# number only, unit % dropped from output

Consider the reported cell viability for these molecules:
Clc1ccccc1C(c1ccccc1)(c1ccccc1)n1ccnc1; 95
C[N]1N=CC=C1C/2=C(\C)N(C(=O)C(=C2)/C(=O)NCC3=NC=C(C=C3)[S+](C)([O-])=O)C4=CC=CC(=C4)C(F)(F)F; 100
Cc1nc(N)ncc1-c1nc(N2CCOCC2)c2sc(C(C)(C)O)cc2n1; 10.5
Cc1ccc(-c2cc(C(F)(F)F)nn2-c2ccc([S+](N)(=O)[O-])cc2)cc1; 112

Which value of cell viability has been reported for CCOC(=O)[C@H]1O[C@@H]1C(=O)N[C@@H](CC(C)C)C(=O)NCCC(C)C in the records?
102

Please answer likewise for C=CC(=O)Nc1ccc2ncnc(Nc3ccc(OCc4cccc(F)c4)c(Cl)c3)c2c1
13.6

###

Test system: SEM cells
Assay: cell viability relative to DMSO control; higher = less cytotoxic
Settings: HPLM + 10% dialyzed FBS; 48 h; 0.569 µM
metric: cell viability (%)
# number only, unit % dropped from output

Consider the reported cell viability for these compounds:
C[N]1N=CC=C1C/2=C(\C)N(C(=O)C(=C2)/C(=O)NCC3=NC=C(C=C3)[S+](C)([O-])=O)C4=CC=CC(=C4)C(F)(F)F; 99.5
C[C@H](NCc1ccc(OCc2cccc(F)c2)cc1)C(N)=O; 58
COC(=O)Nc1nc2ccc([S+]([O-])c3ccccc3)cc2[nH]1 (centres undefined); 87.9
O=C(NCc1ccccc1)c1csc(Nc2ccncn2)n1; 74.4
COc1ccc(C2(C#N)CCC(C(=O)O)CC2)cc1OC1CCCC1 (centres undefined); 103
OCCN1C[C@H](O)[C@@H](O)[C@H](O)[C@H]1CO; 138
C[N+]1(C)[C@@H]2CC(OC(=O)C(O)(c3cccs3)c3cccs3)C[C@H]1[C@@H]1O[C@@H]12 (some centres undefined); 103
OCCN(CCO)c1nc(N2CCCCC2)c2nc(N(CCO)CCO)nc(N3CCCCC3)c2n1; 117

Which value of cell viability has been reported for O=[S+]([O-])(NCCNC/C=C/c1ccc(Br)cc1)c1cccc2cnccc12 in the records?
91.1

Please answer likewise for CC(C)Cn1cnc2c(N)nc3ccccc3c21
104

Please answer likewise for CCc1cc(-c2n[nH]c(C)c2-c2ccc3c(c2)OCCO3)c(O)cc1O
126

###

Collected cell viability values appear next to each entry.
Test system: NOMO1
Test: cell viability relative to DMSO control; higher = less cytotoxic
Conditions: RPMI 5 mM glucose + 10% FBS; 48 h; 0.0632 µM
# number only, unit % dropped from output

Consider the reported cell viability for these compounds:
CC(C)(C)C1=CC(=C(NC(=O)C/2=C/NC3=C(C=CC=C3)C2=O)C=C1O)C(C)(C)C; 136
O=C(NCC1CCOCC1)c1cnc(Nc2ccc(Cl)cc2Cl)nc1C(F)(F)F; 116
COc1cc2ncnc(Nc3cccc(Cl)c3)c2cc1OC; 102
Nc1ccn([C@H]2CS[C@@H](CO)O2)c(=O)n1; 135
CC[C@H]1CN2CCc3cc(OC)c(OC)cc3[C@@H]2C[C@@H]1C[C@H]1NCCc2cc(OC)c(OC)cc21; 121
CC(S)C(=O)NCC(=O)O (centres undefined); 107
CCN(CC)CCCC(C)Nc1nc(C)cc(Nc2ccc3nc(C)cc(N)c3c2)n1 (centres undefined); 123
O=C(NCc1ccccc1)c1csc(Nc2ccncn2)n1; 94.8
Nc1nc(NCCNc2ncc(-n3ccnc3)c(-c3ccc(Cl)cc3Cl)n2)ccc1[N+](=O)[O-]; 127
Cc1cnc(Nc2ccc(N3CCN(C)CC3)cc2)nc1Nc1cccc([S+](=O)([O-])NC(C)(C)C)c1; 101

Which value of cell viability has been reported for CCOC(=O)O[C@]1(C(=O)OCCl)CC[C@H]2[C@@H]3CCC4=CC(=O)C=C[C@]4(C)[C@H]3[C@@H](O)C[C@@]21C in the records?
82.2

Please answer likewise for NCCc1ccc(O)c(O)c1
121

Please answer likewise for COC(=O)[C@H](c1ccccc1Cl)N1CCc2sccc2C1
103

Please answer likewise for C[C@H](Cc1ccc(O)c(O)c1)[C@@H](C)Cc1ccc(O)c(O)c1
117

Please answer likewise for CC(C)n1cnc2c(NCCc3ccc(O)cc3)nc(-c3csc4ccccc34)nc21
127

Please answer likewise for C1COC(NC(C2CC2)C2CC2)=N1
89.7

###

System: SEM cells
Assay: cell viability relative to DMSO control; higher = less cytotoxic
Settings: HPLM + 10% dialyzed FBS; 48 h; 5.12 µM
Collected cell viability values appear next to each entry.
# number only, unit % dropped from output

Consider the reported cell viability for these compounds:
COC(=O)[C@H](c1ccccc1Cl)N1CCc2sccc2C1; 109
CC1=C(/C=C/C(C)=C/C=C/C(C)=C/C(=O)O)C(C)(C)CCC1; 122
C1COC(NC(C2CC2)C2CC2)=N1; 88.7
O=C(O)Cc1cccc(OCCCN(Cc2cccc(C(F)(F)F)c2Cl)CC(c2ccccc2)c2ccccc2)c1; 93.5
COC1=CC=C2[N](CCCN(C)C)C=C(C2=C1)C/3=C(/C(=O)NC3=O)C4=C[NH]C5=C4C=CC=C5; 88.4
COc1ccc(-c2oc3cc(OC)ccc3c2C(=O)c2ccc(C#N)cc2)cc1; 131

Which value of cell viability has been reported for OCCN1C[C@H](O)[C@@H](O)[C@H](O)[C@H]1CO in the records?
134

Please answer likewise for COc1cc2ncn(-c3cc(OCc4ccccc4C(F)(F)F)c(C(N)=O)s3)c2cc1OC
28.6
